Target: T1, Fusion protein of extracellular domain of human TIGIT and His-tag (human TIGIT ECD-his) (human)
T1 chain: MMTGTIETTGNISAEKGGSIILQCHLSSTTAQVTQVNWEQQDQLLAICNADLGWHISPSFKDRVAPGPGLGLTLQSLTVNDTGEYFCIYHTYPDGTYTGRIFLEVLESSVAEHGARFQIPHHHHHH
Experiment: BIAcore
measure: kon (M⁻¹ s⁻¹)
Write the value in M⁻¹ s⁻¹ as a bare number.

TIGIT-070-H3L2 (antibody, V domains shown, Humanized anti-TIGIT antibody) VH: EVQLVQSGAEVKKPGASVKVSCKASGYTFTNYYMHWVRQAPGQGLEWMGRIDPDSGGSKYNEKFKSRVTITVDKLSSTAYMELSSLRSEDTAVYYCAREGHYGFYSDYWGQGTTVTVSS VL: DIQMTQSPSSLSASVGDRVTITCRVSENIYSYLAWYQQKPGKSPKLLVYNAKTLAEGVPSRFSGSGSGTDFTLTISSLQPEDFATYYCQHHYGNPLTFGPGTKVDIK: 1.3e+06
TIGIT-006-H2L2 (antibody, V domains shown, Humanized anti-TIGIT antibody) VH: EVQLQESGPGLVKPSETLSLTCAVSGYSMTSDYWNWIRQPPGKGLEWIGYISYSGRTYYNPSLKSRVTISRDTSKNQFSLKLSSVTAADTAVYYCARGDYSNYGGAMYDWGQGTTVTVSS VL: DIVMTQTPLSLSVTPGQPASISCRASQGVSTTIAWYQQKPGQSPKLLIYSASYRYTGVPDRFSGSGSGTDFTLKISRVEAEDVGVYYCQQYYSSPFTFGGGTKVEIK: 363000

# next binder below
// recorded kon for TIGIT-006-H4L1 (antibody, V domains shown, Humanized anti-TIGIT antibody) VH: EVQLQESGPGLVKPSETLSLTCAVSGYSMTSDYWNWIRQPPGKKLEWMGYISYSGRTYYNPSLKSRITISRDTSKNQFSLKLSSVTAADTAVYYCARGDYSNYGGAMYDWGQGTTVTVSS VL: DIVMTQTPLSLSVTPGQPASISCRASQGVSTTIAWYLQKPGQSPQLLIYSASYRYTGVPDRFSGSGSGTDFTLKISRVEAEDVGVYYCQQYYSSPFTFGGGTKVEIK : 393000
